- Target desc: T1, Purified Arp2/3 complex
- T1 construct: Used in fluorescence anisotropy, pyrene-actin and TIRF assays
- Protocol notes: fluorescence anisotropy, competition with labelled ArpinA bound to purified Arp2/3 complex
pKd: −log10 of the molar value.
Quantity: pKd

[[record]]
binder = "EIREQGDGAEDEEWDD (Purchased from Proteogenix; also called Arpin Acidic peptide; Acidic peptide) [ArpinA peptide (residues 211-226 of full length Arpin), unlabelled synthetic peptide]"
value = 5.99

